# key: entry, value: MIC
System: Pseudomonas aeruginosa
Experiment: MIC against bacteria (serial dilution in nutrient broth)
Assay type: cell-based
Conditions: 37 C., 48 hrs
All answers are understood in µg/mL, so give the number only.

Please review the entries below; each comes with its answer.
• O=C1C(c2ccc(O)cc2)N(CO)C(=O)N1CO (centres unmarked) = 100
• O=C1NC(c2ccc(O)cc2)C(=O)N1CO (centres unmarked) = 200
• CCC(O)N1C(=O)C(c2ccc(O)cc2)N(C(O)CC)C1=O (centres unmarked) = 1500
• O=C1NC(c2ccc(O)c(Cl)c2)C(=O)N1CO (centres unmarked) = 100

The compound listed as CC(O)N1C(=O)C(c2ccc(O)cc2)N(C(C)O)C1=O (centres unmarked) shows MIC equal to 1200

====

# key: entry, value: MIC
Tested on: Aspergillus flavus
All answers are understood in µg/mL, so give the number only.

Please review the entries below; each comes with its answer.
- O=C1C(c2ccc(O)cc2)N(CO)C(=O)N1CO (centres unmarked): 2000
- CC(O)N1C(=O)C(c2ccc(O)cc2)N(C(C)O)C1=O (centres unmarked): 5000
- O=C1NC(c2ccc(O)c(Cl)c2)C(=O)N1CO (centres unmarked): 2000
- CCC(O)N1C(=O)C(c2ccc(O)cc2)N(C(O)CC)C1=O (centres unmarked): 5000

The compound listed as O=C1NC(c2ccc(O)cc2)C(=O)N1CO (centres unmarked) shows MIC equal to 3000

====

Values of MIC reported for Tricoderma virid appear below.

* O=C1C(c2ccc(O)cc2)N(CO)C(=O)N1CO (centres unmarked) | 1000 µg/mL

The compound listed as O=C1NC(c2ccc(O)c(Cl)c2)C(=O)N1CO (centres unmarked) shows MIC equal to 1000 µg/mL

The compound listed as O=C1NC(c2ccc(O)cc2)C(=O)N1CO (centres unmarked) shows MIC equal to 1000 µg/mL

The compound listed as CCC(O)N1C(=O)C(c2ccc(O)cc2)N(C(O)CC)C1=O (centres unmarked) shows MIC equal to 2000 µg/mL

The compound listed as CC(O)N1C(=O)C(c2ccc(O)cc2)N(C(C)O)C1=O (centres unmarked) shows MIC equal to 3000 µg/mL

====

Values of MIC reported for Aspergillus niger appear below.
All answers are understood in µg/mL, so give the number only.

Please review the entries below; each comes with its answer.
* O=C1NC(c2ccc(O)cc2)C(=O)N1CO (centres unmarked) | 2000
* O=C1C(c2ccc(O)cc2)N(CO)C(=O)N1CO (centres unmarked) | 1000
* CC(O)N1C(=O)C(c2ccc(O)cc2)N(C(C)O)C1=O (centres unmarked) | 4000
* O=C1NC(c2ccc(O)c(Cl)c2)C(=O)N1CO (centres unmarked) | 2000

# ---- query compound ----
The observed MIC for CCC(O)N1C(=O)C(c2ccc(O)cc2)N(C(O)CC)C1=O (centres unmarked) when tested with Aspergillus niger stands at 3000

====

Values of MIC reported for Candida albicans appear below.
All answers are understood in µg/mL, so give the number only.

Please review the entries below; each comes with its answer.
- O=C1NC(c2ccc(O)cc2)C(=O)N1CO (centres unmarked): 4000
- O=C1C(c2ccc(O)cc2)N(CO)C(=O)N1CO (centres unmarked): 2000
- CCC(O)N1C(=O)C(c2ccc(O)cc2)N(C(O)CC)C1=O (centres unmarked): 5000

The compound listed as CC(O)N1C(=O)C(c2ccc(O)cc2)N(C(C)O)C1=O (centres unmarked) shows MIC equal to 5000

The compound listed as O=C1NC(c2ccc(O)c(Cl)c2)C(=O)N1CO (centres unmarked) shows MIC equal to 2000
